# procedure summary: Oral bioavailability in rat
# Format: ADME, organism-based
# assay context: in vivo
attribute measured: bioavailability (%)
Response body: numeric value in %, unit text excluded.

O=C(NCc1ccc(Cl)cc1)c1cn2c(CCO)cc3cc(CN4CCOCC4)cc(c1=O)c32 yielded bioavailability of 66

* * *

# procedure summary: Volume of distribution at steady state in rat
# Format: ADME, organism-based
# assay context: in vivo, read-out: Vdss
attribute measured: Vd

// Vd lookup, compound = O=C(NCc1ccc(Cl)cc1)c1cn2c(CCO)cc3cc(CN4CCOCC4)cc(c1=O)c32 , result: 1.7 L/kg

* * *

# procedure summary: Clearance in rat
# Assay type: ADME, organism-based
# assay context: in vivo
attribute measured: clearance (mL/min/kg)
Give the number; mL/min/kg is assumed, so skip it.

The compound listed as O=C(NCc1ccc(Cl)cc1)c1cn2c(CCO)cc3cc(CN4CCOCC4)cc(c1=O)c32 has a reported clearance of 41.7

Reference for the values: ChEMBL document CHEMBL1157125
